Origin of measurements: paper PMC3175489

Assayed System: SOX2 (human, UniProt P48431 1-317)
Sequence (P48431 whole entry): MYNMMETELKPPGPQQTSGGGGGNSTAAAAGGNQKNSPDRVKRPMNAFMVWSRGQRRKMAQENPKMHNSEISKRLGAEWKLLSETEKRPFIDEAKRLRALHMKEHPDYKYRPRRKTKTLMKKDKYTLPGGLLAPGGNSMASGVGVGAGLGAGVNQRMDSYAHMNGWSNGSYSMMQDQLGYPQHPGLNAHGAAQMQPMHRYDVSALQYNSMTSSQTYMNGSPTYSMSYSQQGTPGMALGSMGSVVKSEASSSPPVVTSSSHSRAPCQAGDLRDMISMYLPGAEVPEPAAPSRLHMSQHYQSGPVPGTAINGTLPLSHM
Method Description: Ni-NTA filter microplate fluorescent DNA binding
Quantity Measured: pKd
Remember the convention: pKd equals -log10 of concentration in molar.

Query pKd for SOX2 cognate probe (CR4 POU5F1) (dsDNA) DNA 1: GCAGAGGACAAAGGTGCCGTG DNA 2: CACGGCACCTTTGTCCTCTGC 7.27
